- procedureSummary: qHTS of pediatric cancer cell lines to identify multiple opportunities for drug repurposing: Primary screen for MG 63 (6-TG R) cells (AID 1347105); further: nearly all actives have a fitted effect of over 50% in size
- appliedConditions: MG 63 (6-TG R) viability, CellTiter-Glo, 48 h; series mostly up to 46 µM
Records with an inconclusive call do not appear. Calls of active or inactive are those of the source. The call rests on the fitted dose curve; in most records, active means well fitted cell-killing curve with a large enough effect; inconclusive means small, poorly fitted or top-dose-only effect; inactive means no such curve, though single readings can be large or run the other way.
Give your call using only these classes: active, inactive

Reference set, count: 8
1. CC(C)OC(=O)C(C)(C)Oc1ccc(C(=O)c2ccc(Cl)cc2)cc1 | inactive
2. COC(=O)[C@@H]1[C@H]2C[C@H]3c4[nH]c5ccccc5c4CCN3C[C@@H]2CC[C@@H]1O | inactive
3. Cc1cccc(C)c1OCC(C)N (stereo unspecified) | inactive
4. OC[C@H]1O[C@@H](Oc2cc(O)cc(C=Cc3ccc(O)cc3)c2)[C@H](O)[C@@H](O)[C@H]1O | inactive
5. CN(C[C@@H]1COCCO1)S(=O)(=O)Nc1ccc2ccc3ncc(-c4cnn(C)c4)cc3c(=O)c2c1 | inactive
6. c1ccc2c(Cc3c[nH]c4ccccc34)c[nH]c2c1 | active
7. CC(C)OC(=O)CCCC=CC[C@@H]1[C@H](C=C[C@@H](O)COc2cccc(C(F)(F)F)c2)[C@H](O)C[C@@H]1O | inactive
8. COC1CCC(N(C(=O)C2CCC(C)CC2)c2cc(C3=CCCCC3)sc2C(=O)O)CC1 (stereo unspecified) | inactive

Query string: What classification did COc1cc(N2CCC(N3CCN(C)CC3)CC2)ccc1Nc1ncnc(Nc2ccccc2S(=O)(=O)C(C)C)n1 end up with in this test?
Result string: inactive

Query string: Which outcome was assigned to CN(C)C1CCN(C(=O)c2ccc(NC(=O)Nc3nc(N4CCOCC4)nc(N4CCOCC4)n3)cc2)CC1 in this test?
Result string: active

Query string: Could you check what this test reported for NC[C@@H]1O[C@@H](O[C@H]2[C@@H](O)[C@H](O[C@@H]3[C@@H](O)[C@@H](N)C[C@H](N)[C@H]3O[C@H]3O[C@H](CN)[C@@H](O)[C@@H](O)[C@H]3N)O[C@H]2CO)[C@H](N)[C@@H](O)[C@@H]1O ?
Result string: inactive

Query string: Hi, do you know how O=C1NC(=O)C(=Cc2ccc3nccnc3c2)S1 came out in this test?
Result string: active

Query string: Test call for this molecule, please: NCCS
Result string: inactive

Query string: What outcome does the record of this test show for CN1[C@@H]2CCC[C@@H]1CC(NC(=O)c1nn(C)c3ccccc13)C2 (stereo partly specified) ?
Result string: inactive

Query string: State the result this test recorded for CC(C)(C)c1ccc(C(O)CCCN2CCC(C(O)(c3ccccc3)c3ccccc3)CC2)cc1 (stereo unspecified) .
Result string: inactive

Query string: Could you check what this test reported for CCCCCCCCCCCC1=C(O)C(=O)C=C(O)C1=O ?
Result string: active

Query string: Recorded test call requested for Cc1cnc(C(=O)O)c[n+]1[O-]
Result string: inactive

###

- procedureSummary: Quantitative High-Throughput drug screen in 47 multiple myeloma cell lines against the NCATS MIPE library collection: KMS28PE_JCRB cell viability assay (AID 1918983); further: nearly all actives have a fitted effect of over 35% in size
- appliedConditions: KMS28PE multiple myeloma viability, CellTiter-Glo ATP, 48 h; series mostly up to 45.8 µM
- Source text: PI: Beverly A. Mock Ph.D. Laboratory of Cancer Biology and Genetics, Center for Cancer Research, National Cancer Institute, National Institute of Health, Bethesda, Maryland […] 5; Detector; 425V; Luminescence; Viewlux PerkinElmer. […] 1. […] Briefly, the corresponding myeloma cell lines were screened in 1,536-well plates with 500 cells, 5-uL per well for inhibition of cell viability (assessed by measuring ATP levels with CellTiterGlo). […]
Results filed as inconclusive are left out. Activity calls are given as the source filed them. Calls come from the whole dose curve; as a rule, active = well fitted cell-killing curve with a large enough effect; inconclusive = small, poorly fitted or top-dose-only effect, or effect the other way; inactive = no such curve, though single readings can be large or run the other way.
Output constraint: value belongs to 1 for active, 0 for inactive

1) O=C(O)CCC1CCC(c2cc(F)ccc2F)(S(=O)(=O)c2ccc(Cl)cc2)CC1 (centres undefined) | 0
2) CC(C(=O)O)c1ccc(-c2ccccc2)c(F)c1 (centres undefined) | 0

Query string: Assay outcome for CN(C)c1cc(NC(=O)CNC(C)(C)C)c(O)c2c1C[C@@H]1C[C@H]3[C@H](N(C)C)C(=O)C(C(N)=O)=C(O)[C@@]3(O)C(=O)C1=C2O : what was it?
Result string: 0

Query string: // param item: Cc1c(O)cccc1C(=O)N[C@@H](CSc1ccccc1)[C@H](O)CN1C[C@H]2CCCC[C@@H]2C[C@@H]1C(=O)NC(C)(C)C ; yields the recorded call
Result string: 1

Query string: Kindly provide the recorded test outcome for the following compound: C[C@]12CCC3c4ccc(O)cc4CCC3C1CCC2=O (some centres undefined)
Result string: 1

Query string: Short answer needed: outcome of this test for CC(C)[C@H](CO)Nc1nc(Nc2ccc(C(=O)O)c(Cl)c2)c2ncn(C(C)C)c2n1 ?
Result string: 1

###

- procedureSummary: Quantitative High-Throughput drug screen in 47 multiple myeloma cell lines against the NCATS MIPE library collection: Karpas620_DSMZ cell viability assay (AID 1918959); further: nearly all actives have a fitted effect of over 30% in size
- appliedConditions: Karpas620 myeloma viability, CellTiter-Glo ATP luminescence, 48 h; series mostly up to 45.8 µM
Results filed as inconclusive are left out. Activity calls are given as the source filed them. Calls come from the whole dose curve; as a rule, active = well fitted cell-killing curve with a large enough effect; inconclusive = small, poorly fitted or top-dose-only effect, or effect the other way; inactive = no such curve, though single readings can be large or run the other way.
Your answer must be one of the following: YES = active, NO = inactive

1. C[N+]1(C)[C@@H]2CC(OC(=O)[C@H](CO)c3ccccc3)C[C@H]1[C@H]1O[C@@H]12 (some centres undefined) | NO
2. CCC(=O)O[C@]1(C(=O)CO)CC[C@H]2[C@@H]3CCC4=CC(=O)CC[C@]4(C)[C@@H]3CC[C@@]21C | NO
3. O=C(CCCCCCC(=O)Nc1ccccc1)NO | YES
4. O=C(O)c1ccc(-c2c[nH]c3ncc(-c4ccccc4)cc23)cc1C1CCCC1 | NO
5. CNC(=O)c1ccccc1Sc1ccc2c(C=Cc3ccccn3)n[nH]c2c1 | YES
6. COc1cc(NC(=O)c2ccc(-c3ccc(Cl)cc3)o2)cc(OC)c1 | YES

Query string: What did this assay record as the result for Cc1cc(OCCCc2c(C(=O)O)n(Cc3cccnc3)c3c(-c4c(COc5ccc(N6CCN([S+](C)(=O)[O-])CC6)cc5)nn(C)c4C)cccc23)cc(C)c1Cl ?
Result string: NO

Query string: Hello, I am checking results. What call was entered for COc1cc2ncnc(-n3nc(-c4ccccn4)nc3N)c2cc1OC ?
Result string: YES

Query string: # fetch the recorded call for O=c1cc(-c2ccccc2)oc2cc(O)c(O)c(O)c12 here
Result string: NO

###

- procedureSummary: Cell Viability - LYMP2-017 (AID 972);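 further: cells exposed to compound for 24 hours at 37 °C; nearly all actives have a fitted effect of over 55% in size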
- appliedConditions: LYMP2-017 lymphoblastoid cell viability; series mostly up to 92.2 µM
Records with an inconclusive call do not appear. Active and inactive are the calls of the source. Calls come from the whole dose curve; as a rule, active = well fitted cell-killing curve with a large enough effect; inconclusive = small, poorly fitted or top-dose-only effect; inactive = flat fitted curve, though single readings scatter.
Please reply with one of these outcomes: active, inactive

Observe how each entry below is paired with its result.
1. O=c1c(O)c(-c2ccc(O)cc2)oc2cc(O)cc(O)c12 | inactive
2. O=c1c(-c2ccc(O)cc2)coc2cc(O)ccc12 | inactive
3. CC1=C(/C=C/C(C)=C/C=C/C(C)=C/C(=O)Nc2ccc(O)cc2)C(C)(C)CCC1 | active
4. O=C1NC(=O)C(c2ccccc2)(c2ccccc2)N1 | inactive

Query string: Could you check what this test reported for CC(=O)c1ccc(S(=O)(=O)NC(=O)NC2CCCCC2)cc1 ?
Result string: inactive

Query string: # lookup: test call for CCCNC(=O)NS(=O)(=O)c1ccc(Cl)cc1
Result string: inactive

Query string: What was the test verdict on O=c1[nH]cnc2c1ncn2[C@H]1CC[C@@H](CO)O1 ?
Result string: inactive

Query string: Hi, do you know how O=C(O)Cc1cccc2ccccc12 came out in this test?
Result string: inactive

###

- procedureSummary: qHTS of pediatric cancer cell lines to identify multiple opportunities for drug repurposing: Primary screen for BT-12 cells (AID 1347101); further: nearly all actives have a fitted effect of over 25% in size
- appliedConditions: BT-12 viability, CellTiter-Glo luminescence, 48 h; series mostly up to 57.3 µM
Records with an inconclusive call do not appear. Calls of active or inactive are those of the source. Calls follow the shape of the dose curve; as a rule, active = well fitted cell-killing curve with a large enough effect; inconclusive = small, poorly fitted or top-dose-only effect; inactive = flat fitted curve, though single readings scatter.
Permitted responses: T (active), F (inactive)

Query string: Give the logged outcome of this assay for the following compound: N#CC(=C(N)Sc1ccccc1N)C(C#N)=C(N)Sc1ccccc1N
Result string: T

Query string: Dear all, I need the recorded test outcome for O=C1NCC2(CCN(CCc3ccccc3)CC2)O1 , thank you.
Result string: F

Query string: Answer briefly: the call reported for CN1C[C@H]2c3ccccc3Oc3ccc(Cl)cc3[C@@H]2C1 in this assay.
Result string: F

###

- procedureSummary: qHTS of pediatric cancer cell lines to identify multiple opportunities for drug repurposing: Primary screen for A673 cells (AID 1347092); further: nearly all actives have a fitted effect of over 45% in size
- appliedConditions: A673 Ewing sarcoma viability, CellTiter-Glo ATP luminescence, 48 h; series mostly up to 46 µM
- Procedure: Drug repurposing or repositioning has been offered as a strategy for drug development in oncology programs. […] We employed a titration-based paradigm (quantitative high-throughput screening or qHTS), where all compounds were tested at multiple concentrations for their effect on cell viability. […] Shen, M et al. Quantitative high-throughput phenotypic screening of pediatric cancer cell lines identifies multiple opportunities for drug repurposing. […]
Results filed as inconclusive are left out. The source made the active and inactive calls. Calls follow the shape of the dose curve; as a rule, active = well fitted cell-killing curve with a large enough effect; inconclusive = small, poorly fitted or top-dose-only effect; inactive = no such curve, though single readings can be large or run the other way.
Thanks in advance; please answer with one of these: active, inactive

Sample answers from the record:
1) NCCS | inactive
2) CC=CC(=O)N(CC)c1ccccc1C | inactive
3) NC(CO)(CO)CCc1ccc(Sc2cccc(OCc3ccccc3)c2)cc1Cl | active
4) CCN(CC)C(=O)c1ccc(O)c(OC)c1 | inactive
5) NC[C@@H]1O[C@@H](O[C@H]2[C@@H](O)[C@H](O[C@@H]3[C@@H](O)[C@@H](N)C[C@H](N)[C@H]3O[C@H]3O[C@H](CN)[C@@H](O)[C@@H](O)[C@H]3N)O[C@H]2CO)[C@H](N)[C@@H](O)[C@@H]1O | inactive
6) CC(C)n1nc(-c2ccc3oc(N)nc3c2)c2c(N)ncnc21 | active
7) Cc1cccc(C)c1OCC(C)N (stereo unspecified) | inactive
8) CC(=Cc1ccccc1)C=C1SC(=S)N(CC(=O)O)C1=O | inactive

Query string: Name the outcome recorded for O=C1c2ccccc2-[n+]2ccc3c([nH]c4ccccc43)c21 in the assay.
Result string: active

Query string: Entry O=c1cc(CN2CCOCC2)occ1OCCCCCSc1ccnc2cc(C(F)(F)F)ccc12 : call = ?
Result string: active

Query string: Which outcome did this test record for the molecule O=C(O)c1cc(O)c2c(c1)C(=O)c1cccc(O)c1C2=O ?
Result string: inactive
